Value source: PubChem BioAssay AID1902

Target: S. pyogenes SKKanGAS, kanamycin survival, BacTiterGlo, 6 h
Assay: S. pyogenes SKKanGAS kanamycin growth inhibitors – SKKanGAS strain, luminescence, dose confirmation, streptokinase promoter inhibitor project, dose response (AID 1902);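 also: lower survival reflects blocked streptokinase promoter driving kanamycin resistance gene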
Activity calls are given as the source filed them.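 The calls were made as follows: active = EC50 no more than a set limit of log units above the highest dose; inactive = the rest.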
I would appreciate it if you answered using one of these outcomes: 1 (active), 0 (inactive)

Field: outcome | Entry: CCCOc1ccc(C(=O)NNC(=S)NC(=O)c2cc(-c3ccc(Cl)cc3)nc3ccccc23)cc1 1

Also, Cc1nc2c(C(=O)NCc3ccc4c(c3)OCO4)cnn2c(C)c1Cc1ccc(F)cc1Cl please. 1

Please answer likewise for Oc1c(Br)cc(Br)cc1/C=N/NC(=S)N[C@H]1CC2C=CC1C2 (stereo not given in full) 1

# iterate: CCN1/C(=C/C=C/c2sc3ccccc3[n+]2CC)Sc2ccccc21 1

Also check O=C(Nc1nnc(SCc2ccc(F)cc2)s1)c1ccc2c(c1)C(=O)N(c1ccccc1Cl)C2=O 1

Then this compound: Oc1cc2ccccc2cc1-c1n[nH]c(=S)o1 1

Then Cc1cc2nc(N3C(=O)CNC3=S)sc2cc1C ? 1

Can you check CCOc1cc(-c2cc(-c3ccc(NC(C)=O)cc3)nc(N)c2C#N)ccc1O next? 1

Entry to check: Cc1oc(C(C)(C)C)cc1C(=O)N1CCN(C(c2ccccc2)c2ccccc2)CC1 1

Thanks! And Cn1c(SCC(=O)NC2(C#N)CCCCC2)nnc1-c1cccnc1 ? 0

* * *

Molecular target: S. pyogenes SKKanGAS, kanamycin survival, BacTiterGlo, 6 h
Experiment: S. pyogenes SKKanGAS kanamycin growth inhibitors – SKKanGAS strain, luminescence, dose confirmation, streptokinase promoter inhibitor project, dose response (AID 1902);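 also: lower survival reflects blocked streptokinase promoter driving kanamycin resistance gene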
Calls of active or inactive are those of the source.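 Rule for the calls: active = EC50 no more than a set limit of log units above the highest dose; inactive = the rest.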
For each record, write down the corresponding EC50.

Data request, read-out EC50, for Cc1cc(C)cc(C(=O)N2CCC(CCC(=O)NC3CC3)CC2)c1 > 15 µM (inactive)

What about this molecule? CCOc1ccc(NS(=O)(=O)c2cc(NC(=O)c3ccc(C)cc3)ccc2Cl)cc1 3.72 µM

Please answer likewise for O=[N+]([O-])c1ccc(-c2nc(Nc3cccc(O)c3)c3ccccc3n2)cc1 10.7 µM

Repeat with CC(Oc1ccc(Cl)cc1Cl)C(=O)Nc1ccc(S(=O)(=O)Nc2cnc3ccccc3n2)cc1 (stereo not given) 3.88 µM

Would you mind doing COc1ccc(Cc2n[nH]c(=S)n2NC(=O)Nc2ccc(Cl)c(Cl)c2)cc1 as well? 4.08 µM

* * *

Biological target: S. pyogenes SKKanGAS, kanamycin survival, BacTiterGlo, 6 h
Test: S. pyogenes SKKanGAS kanamycin growth inhibitors – SKKanGAS strain, luminescence, dose confirmation, streptokinase promoter inhibitor project, dose response (AID 1902);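 also: lower survival reflects blocked streptokinase promoter driving kanamycin resistance gene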
Active and inactive are the calls of the source.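 The calls were made as follows: active = EC50 no more than a set limit of log units above the highest dose; inactive = the rest.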
experimentalEndpoint: EC50

Hello, I am looking for reported EC50 with S. pyogenes SKKanGAS, kanamycin survival, BacTiterGlo, 6 h for CCOc1cc(/C=C(\C#N)c2nc(-c3cccs3)c(NC(C)=O)s2)ccc1O . Could you help? 0.385 µM

Cool, now Cc1cc(C)c[n+](C2=C([O-])c3ccccc3C(=O)/C2=N\S(=O)(=O)c2cccs2)c1 1.85 µM

What do you get for Cc1ccc(-c2nn(-c3ccccc3)cc2/C=N/NC(=O)CSc2nnc(C)n2-c2ccccc2)cc1 ? 9.84 µM

COC(=O)c1c(NC(=O)c2ccc([N+](=O)[O-])o2)sc2c1CCN(C(C)C)C2 ? 4 µM

Next record, please: COc1ccccc1N1CCN(C(=O)/C=C/c2ccc(C)cc2)CC1 > 15 µM (inactive)

# repeat for COCC1CCN(C(=O)c2ccc3oc(Cc4ccccc4)nc3c2)C1 (configuration not stated) > 15 µM (inactive)

Follow-up entry: Cc1noc(C)c1S(=O)(=O)N(CCc1ccccc1)Cc1ccccc1 5.83 µM

Try the compound COc1ccc(-c2nnc(NC(=O)c3cc(Cl)ccc3Cl)o2)cc1 0.814 µM

Another compound: CCc1c(C)nc2cc(-c3ccc(OC)c(OC)c3)nn2c1N1CCC(C)CC1 7.56 µM

Let us now turn to CN1CCN(C2=Cc3cc(Cl)ccc3Sc3cc(F)ccc32)CC1 5.16 µM

Proceed to Cc1ccc(S(=O)(=O)N2c3ccccc3OCC2C(C)(C)C)cc1 (configuration not stated) 2.59 µM

Would you kindly repeat that for CC(C)(C)c1nc(NC(=O)Nc2ccccc2)sc1Br ? 6.3 µM

Same thing, different compound: Cc1ccc(CNC(=O)c2ccc([N+](=O)[O-])o2)cc1 4.67 µM

Same for COc1ccc(C2CC(=O)c3cnc(N4CCN(Cc5ccccc5)CC4)nc3C2)cc1 (configuration not stated) 13.7 µM

Try the compound Cc1ccc(C)c(NC(=O)CSc2nc3nc(-c4cccs4)cc(C(F)(F)F)c3c(=O)[nH]2)c1 3.18 µM

One more compound: CC(=O)NC[C@H]1CN(c2ccc(N3CCOCC3)c(F)c2)C(=O)O1 0.158 µM

Same thing, different compound: O=[N+]([O-])c1ccc(O)c(-c2cc(C(F)(F)F)nc(-c3ccccc3)n2)c1 0.205 µM

// query: Oc1ccc(Br)cc1/C=N/NC(=S)NCCc1ccccc1 1.93 µM

Same lookup for CC(C)(C)C(=O)NC(=S)NNC(=O)c1ccc(Cl)cc1Cl , please. 0.402 µM

Same lookup for CCc1ccc2c(c1)C1(NN=C(c3ccccc3)S1)C(=O)N2 (configuration not stated) , please. 0.245 µM

Now the same for CCOC(=O)C1=NN(C(=O)c2ccc(OC)cc2)C(O)(c2ccc(Cl)cc2)C1 (configuration not stated) 6 µM

Same for COc1cnc(-c2ccccn2)nc1Oc1ccc(Cl)c2ccccc12 0.142 µM

How about this compound: CCOC(=O)C1=C(C)N=c2s/c(=C/c3ccc(OCC(=O)O)c(OC)c3)c(=O)n2C1c1ccc(Cl)cc1 (configuration not stated) 5 µM

Param item: O=C1c2ccccc2CC1(Cc1ccccc1)Cc1ccccc1 4.35 µM

Follow-up entry: CC1=NN(C(N)=S)C(=O)C1N=Nc1c(Br)cc(Br)cc1Br (configuration not stated) 2.78 µM

Same read-out for Cc1cccc(C(=O)CC(=O)c2cc(Cl)ccc2O)c1 ? 1.06 µM

Likewise for O=c1[nH]c(=O)n([C@H]2C[C@H](O)[C@@H](CO)O2)cc1F ? 0.689 µM

What about CCC(=O)Oc1ccc(-c2nc(-c3cccnc3)no2)cc1 ? 4.3 µM

Another: O=C(N/N=C/c1ccc([N+](=O)[O-])o1)c1cn(-c2ccccc2)nc1-c1ccc(F)cc1 1.16 µM

Cool, now Cc1ccc(SCC(=O)N2c3ccccc3Sc3ccccc32)cc1 3.78 µM

Entry O=C(N/N=C/c1cc(Cl)cc([N+](=O)[O-])c1O)c1ccccc1NS(=O)(=O)c1cccs1 please 12 µM

Entry O=C(O)CN1C(=O)/C(=C\c2cc(Br)ccc2OCc2ccc(Cl)cc2Cl)SC1=S please 1.51 µM

Try the compound CCCOc1ccc(C2C(C(=O)c3cc4ccccc4o3)=C(O)C(=O)N2c2cc(C)on2)cc1OC (configuration not stated) 1.98 µM

Would you kindly repeat that for O=C(NC(NC(=S)Nc1ccc(Cl)cc1Cl)C(Cl)(Cl)Cl)c1cccc([N+](=O)[O-])c1 (configuration not stated) ? 0.99 µM

Now consider CC1CCCCC1NC(=O)CCn1ccc2cc(S(=O)(=O)N3CCCC3)ccc21 (configuration not stated) . > 15 µM (inactive)

O=C(c1cccs1)N1CCC(c2nc3c(nnn3Cc3ccccc3Cl)c(=O)[nH]2)CC1 ? 7.09 µM

Further, for Cc1nnc(NC(=O)c2ccc(S(=O)(=O)N3CC(C)CC(C)C3)cc2)o1 (configuration not stated) ? 5.82 µM

Similarly, Cc1ccc(S(=O)(=O)Nc2ccc(Cl)cc2)cc1NC(=O)c1cc2c(s1)CCCC2 ? 6.63 µM

Repeat for the following compound: CCCCCCOC(=O)/C=C/c1c(C)[nH]c(=O)[nH]c1=O 0.475 µM

Would you kindly repeat that for CCN1/C(=C\C=C\C2=[N+](CC)c3ccccc3C2(C)C)C(C)(C)c2ccccc21 ? 7.34 µM

Check O=C(O)c1ccc(N2CCCCS2(=O)=O)cc1 too. > 15 µM (inactive)

Now consider O=C(N/N=C/c1cc2c3c(c1O)CCCN3CCC2)c1ccccc1O . 7.14 µM
